Assay: in vivo
Type: in vivo, rat (Sprague Dawley)
Settings: Sprague Dawley, in vivo; male SD rat, IV 1 mg/kg
One threshold, 1 L/kg, splits the recorded Vd values: lower ones are YES, equal or higher ones are NO.

Prompt line: Determine whether this compound shows Vd lower than 1 L/kg (ties excluded): "CCc1ccc(-c2nn3cccnc3c2C(=O)N[C@H]2N=C(c3ccccc3)c3cccc(F)c3NC2=O)cn1"
Response line: NO

Prompt line: Please check: Vd for "O=C(N[C@H]1N=C(c2ccccc2)c2cccc(F)c2NC1=O)c1c(-c2cncc(Cl)c2)nn2cccnc12" , strictly under 1 L/kg or not?
Response line: NO

Prompt line: Does this compound meet the criterion Vd < 1 L/kg? "CCc1ccc(-c2nn3cccnc3c2C(=O)N[C@H]2N=C(c3ccccc3)c3cccc(F)c3NC2=O)c(C)n1"
Response line: YES

Prompt line: Just wondering, is Vd of "Cc1ccc(-c2nn3cccnc3c2C(=O)N[C@H]2N=C(c3ccccc3)c3cccc(F)c3NC2=O)cn1" below 1 L/kg?
Response line: YES

Prompt line: Take the compound "O=C(N[C@H]1N=C(c2ccccc2)c2ccccc2NC1=O)c1c(-c2ccccc2F)nn2cccnc12" and say whether its Vd is less than 1 L/kg.
Response line: NO

---

Test: Cell cytotoxicity (CC50)
Type: cell-based
Details: human; mean of at least two experiments
Provide the recorded CC50 for the entries that follow.

Prompt line: Given the entry "Cn1ncc2cc(-c3nn4cccnc4c3C(=O)N[C@H]3N=C(c4ccccc4)c4cccc(F)c4NC3=O)ccc21" , report its measured CC50.
Response line: > 25 µM

Prompt line: Which value of CC50 has been reported for "CN1C[C@H]2C[C@@H]1CN2c1ccn2nc(-c3ccccc3F)c(C(=O)N[C@H]3N=C(c4ccccc4)c4cccc(F)c4NC3=O)c2n1" in the records?
Response line: 16.3 µM

Prompt line: Item "CC(C)Nc1ccc(-c2nn3cccnc3c2C(=O)N[C@H]2N=C(c3ccccc3)c3ccccc3NC2=O)cc1" has what recorded CC50?
Response line: > 25 µM

Prompt line: State the recorded CC50 for this entry: "CN1CC(Oc2ccc3nc(-c4ccccc4F)c(C(=O)N[C@H]4N=C(c5ccccc5)c5cccc(F)c5NC4=O)n3n2)C1"
Response line: 21.9 µM

Prompt line: If you can, please state the reported CC50 value of "Cc1ccc(-c2nn3cccnc3c2C(=O)N[C@H]2N=C(c3ccccc3)c3ccccc3NC2=O)cn1" .
Response line: > 25 µM

Prompt line: Look at this compound and give its reported CC50. "O=C(N[C@H]1N=C(c2ccccc2)c2cccc(F)c2NC1=O)c1c(-c2ccccc2)nc2ccc(N3C[C@H]4C[C@@H]3CO4)nn12"
Response line: > 25 µM

Prompt line: State the recorded CC50 for this entry: "Cc1ccn2nc(-c3ccccc3F)c(C(=O)N[C@H]3N=C(c4ccccc4)c4cccc(F)c4NC3=O)c2n1"
Response line: > 25 µM

Prompt line: // CC50 lookup, key: "CN1CC(Oc2ccc3nc(-c4ccccc4)c(C(=O)N[C@H]4N=C(c5ccccc5)c5cccc(F)c5NC4=O)n3n2)C1"
Response line: > 16.8 µM

Prompt line: Return reported CC50; argument: "Cc1ccc2nc(-c3ccc(F)cn3)c(C(=O)N[C@H]3N=C(c4ccccc4)c4cccc(F)c4NC3=O)n2n1"
Response line: > 25 µM

Prompt line: I would be grateful if you could share the reported CC50 for "O=C(N[C@H]1N=C(c2ccccc2)c2cccc(F)c2NC1=O)c1c(-c2ccccc2F)nc2cccnn12" .
Response line: > 25 µM

Prompt line: Please look up its CC50: "CC(C)Nc1ccc(-c2nn3cccnc3c2C(=O)N[C@H]2N=C(c3ccccc3)c3cccc(F)c3NC2=O)c(F)n1"
Response line: > 25 µM

Prompt line: So what does the record say about CC50 for "Cc1nn2cc(-c3ccoc3)cnc2c1C(=O)N[C@H]1N=C(c2ccccc2)c2cccc(F)c2NC1=O" ?
Response line: > 25 µM

Prompt line: Can you share its CC50? I mean this compound: "Cc1cnc2c(C(=O)N[C@H]3N=C(c4ccccc4)c4cccc(F)c4NC3=O)c(-c3ccccc3F)nn2c1"
Response line: > 25 µM

Prompt line: GET /values?readout=CC50&item= "O=C(N[C@H]1N=C(c2ccccc2)c2cccc(F)c2NC1=O)c1c(-c2ccccc2F)nn2cccnc12"
Response line: > 25 µM
